test: Tissue distribution of toremifene and metabolites after 5 days IP vs. topical toremifene (HPLC), mice with MDA A-1 tumors; details: mouse, serum, ip, 1 mg
Quantity Kind: concentration at 2 h (ng/mL)

[
  {
    "Compound": "CN(C)CCOc1ccc(/C(=C(/CCCl)c2ccccc2)c2ccc(O)cc2)cc1 [4-hydroxytoremifene]",
    "Reported": 160
  },
  {
    "Compound": "CNCCOc1ccc(C(=C(CCCl)c2ccccc2)c2ccccc2)cc1",
    "Reported": 180
  }
]

---

assay: Tissue distribution of toremifene and metabolites after 5 days IP vs. topical toremifene (HPLC), mice with MDA A-1 tumors; conditions: mouse, brain, topical or ocular, 2.5 mg/day
Quantity Kind: concentration at 2 h (ng/g)

[
  {
    "Molecule": "CNCCOc1ccc(C(=C(CCCl)c2ccccc2)c2ccccc2)cc1",
    "Units Symbol": "ng/g",
    "concentration at 2 h": 290
  },
  {
    "Molecule": "CN(C)CCOc1ccc(/C(=C(/CCCl)c2ccccc2)c2ccc(O)cc2)cc1 [4-hydroxytoremifene]",
    "Units Symbol": "ng/g",
    "concentration at 2 h": 350
  }
]

---

system: TD 7.2; test: Cytostatic effect in experimental cell line TD 7.2; assay type: cell-based; conditions: Monodelphis domestica, read-out: IC-50 (50% growth inhibitory concentration)
Quantity Kind: IC50 (µM)
Unit µM implied. Number only.

Request - read-out IC50 | tested on TD 7.2 | compound CN(C)CCOc1ccc(/C(=C(/CCCl)c2ccccc2)c2ccccc2)cc1 [toremifene]
9.6

---

test: Tissue distribution of toremifene after single dose (500 μg) IP vs. topical; assay type: in vivo; conditions: mouse, uterus, topical or ocular, 0.5 mg, Uterus toremifene concentration, topical in methylcellulose (MC)
Quantity Kind: concentration at 2 h (ng/g)
Unit ng/g implied. Number only.

For the molecule CN(C)CCOc1ccc(/C(=C(/CCCl)c2ccccc2)c2ccccc2)cc1 [toremifene] , what concentration at 2 h is on record?
1100

---

assay: Tissue distribution of toremifene and metabolites after 5 days IP vs. topical toremifene (HPLC), mice with MDA A-1 tumors; conditions: mouse, tumor, ip, 1 mg
Quantity Kind: concentration at 2 h (ng/g)

I = CN(C)CCOc1ccc(/C(=C(/CCCl)c2ccccc2)c2ccc(O)cc2)cc1 [4-hydroxytoremifene]
II = CNCCOc1ccc(C(=C(CCCl)c2ccccc2)c2ccccc2)cc1 [N-demethyltoremifene]
Return label of the item with the larger concentration at 2 h. Candidates: I , II . Refer to your chosen item by its label in the answer.
II

---

experiment: Tissue distribution of toremifene after single dose (500 μg) IP vs. topical; type: in vivo; settings: mouse, uterus, ip, 0.5 mg, Uterus toremifene concentration
Quantity Kind: concentration at 2 h (ng/g)
Unit ng/g implied. Number only.

For the molecule CN(C)CCOc1ccc(/C(=C(/CCCl)c2ccccc2)c2ccccc2)cc1 , what concentration at 2 h is on record?
23600

---

assay: Tissue distribution of toremifene after single dose (500 μg) IP vs. topical; assay type: in vivo; details: mouse, serum, topical or ocular, 0.5 mg, Serum toremifene concentration, topical in DMSO
Quantity Kind: concentration at 2 h (ng/mL)
Unit ng/mL implied. Number only.

For the compound CN(C)CCOc1ccc(/C(=C(/CCCl)c2ccccc2)c2ccccc2)cc1 [toremifene] , what concentration at 2 h is on record?
30
